# ASSAY REMARKS: Pharmacokinetic properties in C57Bl/6 mice
# Type: in vivo
# DETAILS: mouse, plasma, 2 mg/kg IP
QUANTITY KIND: AUC(0-t) (ng·h/mL)
Write the number in ng·h/mL without appending the unit.

{"SMILES STR": "CO[C@H]1C[C@@H]2CC[C@@H](C)[C@@](O)(O2)C(=O)C(=O)N2CCCC[C@H]2C(=O)O[C@H]([C@H](C)C[C@@H]2CC[C@@H](O)[C@H](OC)C2)CC(=O)[C@H](C)/C=C(\\C)[C@@H](O)[C@@H](OC)C(=O)[C@H](C)C[C@H](C)/C=C/C=C/C=C/1C", "READOUT UNITS": "ng·h/mL", "AUC(0-t)": 2480}

Ask: Tell me measured AUC(0-t) for CO[C@@H]1C[C@H](C[C@@H](C)[C@@H]2CC(=O)[C@H](C)/C=C(\C)[C@@H](O)[C@@H](OC)C(=O)[C@H](C)C[C@H](C)/C=C/C=C/C=C(\C)[C@@H](OCCOCCOCCO)C[C@@H]3CC[C@@H](C)[C@@](O)(O3)C(=O)C(=O)N3CCCC[C@H]3C(=O)O2)CC[C@H]1O please.
Reply: 16600

----------
The entries below are paired with their reported half-life.
# ASSAY REMARKS: Pharmacokinetic properties in C57Bl/6 mice
# Type: in vivo
# DETAILS: mouse, plasma, 1 mg/kg IV, read-out: Terminal T1/2 (converted)
Write down the numeric answer in h and omit the unit.

{"COMPOUND": "CO[C@@H]1C[C@H](C[C@@H](C)[C@@H]2CC(=O)[C@H](C)/C=C(\\C)[C@@H](O)[C@@H](OC)C(=O)[C@H](C)C[C@H](C)/C=C/C=C/C=C(\\C)[C@@H](OCCOCCOCCO)C[C@@H]3CC[C@@H](C)[C@@](O)(O3)C(=O)C(=O)N3CCCC[C@H]3C(=O)O2)CC[C@H]1O [I-29]", "half-life / h": 14.7}

Kindly consider the entry below.
Ask: Find the measured half-life of CO[C@H]1C[C@@H]2CC[C@@H](C)[C@@](O)(O2)C(=O)C(=O)N2CCCC[C@H]2C(=O)O[C@H]([C@H](C)C[C@@H]2CC[C@@H](O)[C@H](OC)C2)CC(=O)[C@H](C)/C=C(\C)[C@@H](O)[C@@H](OC)C(=O)[C@H](C)C[C@H](C)/C=C/C=C/C=C/1C [Rapamycin, rapamycin] and report it.
Reply: 8.35

----------
# ASSAY REMARKS: Pharmacokinetic properties in C57Bl/6 mice
# Type: in vivo
# DETAILS: mouse, plasma, 1 mg/kg IV, read-out: Vss
As shown below, each of these molecules has a reported Vd value.
Express your answer in L/kg, writing the number without its unit.

{"MOLECULE": "CO[C@@H]1C[C@H](C[C@@H](C)[C@@H]2CC(=O)[C@H](C)/C=C(\\C)[C@@H](O)[C@@H](OC)C(=O)[C@H](C)C[C@H](C)/C=C/C=C/C=C(\\C)[C@@H](OCCOCCOCCO)C[C@@H]3CC[C@@H](C)[C@@](O)(O3)C(=O)C(=O)N3CCCC[C@H]3C(=O)O2)CC[C@H]1O [I-29]", "READOUT UNITS": "L/kg", "Vd": 0.863}

Let's switch to this molecule now.
Ask: Tell us which Vd value is on record for CO[C@H]1C[C@@H]2CC[C@@H](C)[C@@](O)(O2)C(=O)C(=O)N2CCCC[C@H]2C(=O)O[C@H]([C@H](C)C[C@@H]2CC[C@@H](O)[C@H](OC)C2)CC(=O)[C@H](C)/C=C(\C)[C@@H](O)[C@@H](OC)C(=O)[C@H](C)C[C@H](C)/C=C/C=C/C=C/1C [Rapamycin, rapamycin]
Reply: 1.73
